target: Serine/threonine-protein kinase mTOR (Homo sapiens, UniProt P42345); assay: Inhibition of recombinant human GST-tagged mTOR catalytic domain (1360 to 2549 residues) expressed in baculovirus expression system by AlexaFluor647-labeled kinase tracer 314 based LanthaScreen assay
metric: IC50 (µM)

Study these solved cases before continuing.
>  <molecule>
CS(=O)(=O)N1CCN(Cc2cc3c(N4CCOCC4)nc(-c4cnc(N)nc4)cn3n2)CC1

>  <study-target>
Serine/threonine-protein kinase mTOR (Homo sapiens, UniProt P42345)

>  <measurement>
1.7

$$$$
>  <molecule>
CS(=O)(=O)N1CCN(Cc2cc3c(N4CCOCC4)nc(-c4cnc(N)nc4)c(Cl)n3n2)CC1

>  <study-target>
Serine/threonine-protein kinase mTOR (Homo sapiens, UniProt P42345)

>  <measurement>
5.41

$$$$

I: CS(=O)(=O)N1CCN(Cc2nc3c(N4CCOCC4)nc(-c4cnc(N)nc4)c(Cl)n3n2)CC1
II: CS(=O)(=O)N1CCN(Cc2cn3cc(-c4cnc(N)nc4)nc(N4CCOCC4)c3n2)CC1
Recorded IC50 values differ for I and II ; which one is higher? Identify your pick by its label. I
(I: 8.17 µM, II: 4.88 µM)
